Where these numbers come from: patent US20250313625A1

Assayed Target: T1, mFc tagged human LAG3 ECD recombinant protein (human, UniProt P18627 23-450)
T1 construct: extracellular domain; purchased from Biointron; not shown: mouse IgG Fc (mFc) tag
T1 sequence (looked up): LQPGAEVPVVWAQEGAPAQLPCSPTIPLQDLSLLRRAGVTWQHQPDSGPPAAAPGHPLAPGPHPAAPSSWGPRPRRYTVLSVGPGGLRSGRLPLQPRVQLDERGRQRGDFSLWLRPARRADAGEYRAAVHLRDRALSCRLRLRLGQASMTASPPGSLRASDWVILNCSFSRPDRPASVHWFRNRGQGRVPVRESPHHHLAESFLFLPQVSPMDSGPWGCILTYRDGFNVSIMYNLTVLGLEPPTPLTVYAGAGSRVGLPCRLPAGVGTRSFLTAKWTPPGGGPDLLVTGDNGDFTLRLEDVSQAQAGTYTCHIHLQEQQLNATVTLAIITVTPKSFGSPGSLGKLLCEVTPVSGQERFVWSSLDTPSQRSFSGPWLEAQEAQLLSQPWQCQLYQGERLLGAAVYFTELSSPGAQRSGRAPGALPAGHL
Experiment Summary: competitive FACS: mFc-LAG3 ECD binding to Raji cells (MHC II)
Endpoint: TOP blocking (%)
Give just the numeric value; % need not be written.

Query string: Query (binder): 033c (antibody, human IgG4, V domains shown, human IgG4 S228P / kappa chimeric antibody; also called chimeric antibody 033; not shown: human kappa light chain constant region (pcDNA3.4-hIgGk vector)) VH: EVQLQQSGAELVRPGASVKLSCTASDFNIKDDYIHWVKQRPEQGLEWIGWIDLENGDTEYASKFQGKATITADTSSNTAYLQLSSLTSEDTAVYYCTTKGSHWGQGTLVTVSA VL: DVVMTQIPLSLPVSLGDQASISCRSSQSLVYSNGNTYLNWYLQKPGQSPKLLIHKVSNRFSGVPDRFSGSGSGTDFTLKISRVEAEDLGVYFCSQSTHVPYTFGGGTKLEIR ; field requested: TOP blocking (%)
Result string: 95

Query string: What measured TOP blocking (%) goes with 039c (antibody, human IgG4, V domains shown, human IgG4 S228P / kappa chimeric antibody; also called chimeric antibody 039; not shown: human kappa light chain constant region (pcDNA3.4-hIgGk vector)) VH: EFQLQQSGPELVKPGASVKISCKASGYSFTDYNLNWVRQSNGKSLEWIGLVDPIYGTIRYNQNFKDKATLTVDQSSSTAYMQLNSLTSEDSAVYYCASIMTAVRYFDHWGQGTTLTVSS VL: DVLMTQTPLFLPVSLGDQASISCRSSLNIVHSDGNTYLEWYLQKPGQSPKLLIYKVSNRFSGVPDRFSGSGSGTDFTLKISGVEAEDLGVYYCFQGSHVPPTFGGGTKLEIK ?
Result string: 62

Query string: Please look up its TOP blocking (%): 038c (antibody, human IgG4, V domains shown, human IgG4 S228P / kappa chimeric antibody; also called chimeric antibody 038; not shown: human kappa light chain constant region (pcDNA3.4-hIgGk vector)) VH: DVQVQESGPGLVKPSQSLSLTCSVTGYSITSGYYWNWIRQFPGNKLEWMGYISYDGSNEYNLSLKNRLSITRDTSKNQFFLKLNSVTTEDTATYYCAREEDGYYGGMDYWGQGTSVTVSS VL: DIVMTQSHKFMSASVGVRVSITCRASQDVDTAVAWYQQKPGQSPKLLIYWASTRHTGVPDRFTGSGSGTDFTLTISNVQSEDLADYFCQQYSSYPYTFGGGTKLEIK
Result string: 98.4

Query string: Request the reported TOP blocking (%) associated with 027c (antibody, human IgG4, V domains shown, human IgG4 S228P / kappa chimeric antibody; also called chimeric antibody 027; not shown: human kappa light chain constant region (pcDNA3.4-hIgGk vector)) VH: EVKILQSGGGLVQPGGSLKLSCAASGIDFSRYWMSWVRRTPGKGLEWIGEINPDSSTINYAPSLKDKFIISRDNAKNTLYLQMSKVRSEDTALYYCARLGIIPTYHYGSSGYYYAMDYWGQGTSVTVSS VL: DVLMTQTPLSLPVSLGDRASISCRSSQTIVHGNGHTSLEWYLQKPGQSPQLLIYKVSNRFSGVPDRFSASGSGTDFTLTISRVEAEDLGVYYCFQVSHVPYTFGGGTKLEIK
Result string: 91.2
